System: influenza B virus
assay_method_text: Antiviral activity in MDCK cells measured by ATP levels (CellTiter-Glo), influenza B
Format: cell-based
condition_context: B/Russia/69; read-out: Cell Protection Assay EC50 ± SD
pEC50: −log10 of the molar value.
quantity: pEC50

# compound, value_reported
records = [
    ("O=C(O)[C@H]1[C@H]2CC[C@H](CC2)[C@@H]1Nc1nc(-c2c[nH]c3ncc(F)cc23)ncc1F [Compound (1)]", "< 8.00"),
]

Taken from patent US11345700B2.
